Test system: HCC-2998 colon
Assay: NCI tumour cell line growth inhibition, 48 h
measuredAttribute: TGI

>  <compound>
C=C(C)[C@@H]1CC[C@]2(C)[C@H](CC=C3[C@@H]4[C@@H](C)[C@H](C)CC[C@]4(C(N)=O)CC[C@]32C)[C@@]1(C)CCC#N

>  <measuredAttribute>
TGI

>  <result>
18.8 µM

$$$$

Below are 4 compounds. Give each one its TGI.
1. NC1CC(Cl)c2c(Cl)sc(Cl)c21 (stereo not given)
2. O=P(CCCCP(=O)(c1ccccc1)c1ccccc1)(c1ccccc1)c1ccccc1.[Cl][Sn]([Cl])([c]1ccccc1)[c]1ccccc1
3. c1ccc2cc3[s+]snc3cc2c1
4. COC(=O)C(Cc1ccc(Oc2cc(CC(NC(=O)c3ccccc3)C(=O)OC)ccc2OC)cc1)NC(=O)c1ccccc1 (stereo not given)

A:
1. > 100 µM
2. 10.1 µM
3. > 100 µM
4. > 100 µM

====

System: PC-3 prostate
Test: NCI tumour cell line growth inhibition, 48 h
measuredAttribute: TGI

>  <compound>
COc1ccc(C(=O)/C=C/c2ccc3c(c2)OCO3)c(OCc2ccccc2)c1

>  <studySystem>
PC-3 prostate

>  <TGI>
> 100 µM

$$$$
>  <compound>
CC(=O)N1C(NN(C)C)CCN1c1ccccc1 (stereo not given)

>  <studySystem>
PC-3 prostate

>  <TGI>
> 10 µM

$$$$
>  <compound>
Cc1ccc(C)n1-c1ccccc1C1C=CN(C(=O)OC(C)(C)C)C=C1

>  <studySystem>
PC-3 prostate

>  <TGI>
> 100 µM

$$$$

Below are 2 compounds. Give each one its TGI.
1. Oc1ccccc1CNCC12CC3CC(CC(C3)C1)C2
2. CC(C)=c1sc(=C(C)C)c2c1=NC(C)(C)N=2

A:
> 100 µM
> 100 µM

====

Test system: OVCAR-8 ovarian
Assay: NCI tumour cell line growth inhibition, 48 h
For each entry below, report its TGI value.

>  <compound>
CC(NCCC(=O)N(CCC(=O)N(CCC(=O)N(CCC(=O)N(CCC(=O)N(CCC(=O)N(CCC(=O)N(CCC(=O)N(CCC(=O)N(CCC(=O)O)[C@H](C)c1ccccc1)[C@H](C)c1ccccc1)[C@H](C)c1ccccc1)[C@H](C)c1ccccc1)[C@H](C)c1ccccc1)[C@H](C)c1ccccc1)[C@H](C)c1ccccc1)[C@H](C)c1ccccc1)[C@H](C)c1ccccc1)c1ccccc1 (stereo partly drawn)

>  <studySystem>
OVCAR-8 ovarian

>  <TGI>
> 47.1 µM

$$$$

Below are 2 compounds. Give each one its TGI.
1. COc1ccccc1N1CCN(CCc2c[nH]c3cc4c(cc23)OCO4)CC1
2. O=C(Nc1ccccc1)n1[nH]c(=O)n(-c2ccccc2)c1=O

A:
1: > 100 µM; 2: > 100 µM

====

For each entry below, report its TGI value.
System: DMS 114 small cell lung
Test: NCI tumour cell line growth inhibition, 48 h

Here is how some compounds turned out for TGI.
>  <compound>
CSc1sc(=S)sc1C(=O)N(C)c1ccccc1

>  <TGI>
> 100 µM

$$$$
>  <compound>
O=C(c1ccccc1)[C@@H]1C[C@H](Sc2ccccc2)c2cc(Cl)ccc2N1

>  <TGI>
82.6 µM

$$$$

Below are 2 compounds. Give each one its TGI.
1. NC(CCC(=O)NC(CSC(=O)N(O)c1ccccc1)C(=O)NCC(=O)O)C(=O)O (stereo not given)
2. CN(C)CC1CCCC(CN(C)C)C1=NOC(=O)c1ccccc1 (stereo not given)

A:
> 1000 µM
> 100 µM

Q: Observed TGI on DMS 114 small cell lung for COc1ccccc1C1c2cc3c(cc2OC(O)(CO)C1C(=O)O)OCO3 (stereo not given) (tested in a mixture with another compound) , please.
A: > 100 µM
